List of MIC values.
# System: P. aeruginosa MDR clinical isolate
# PROTOCOL TEXT: MIC, Gram-negative bacteria: P. aeruginosa MDR clinical isolate
# Type: cell-based
# TEST SETTINGS: Pseudomonas aeruginosa, read-out: Minimal Inhibitory Concentration (MIC) P. aeruginosa MDR clinical isolate

Known results for compounds:
{"COMPOUND": "CC1=C\\[C@@H](O)CC(=O)Cc2nc(co2)C(=O)N2CCC[C@@H]2C(=O)O[C@H]([C@@H](C)CO)[C@H](C)/C=C/C(=O)NC\\C=C\\1 [SA0110026]", "MEASURED ATTRIBUTE": "MIC", "RECORDED RESULT": "> 64 µg/mL"}
{"COMPOUND": "CC1=C\\[C@@H](O)C[C@@H](F)Cc2nc(cs2)C(=O)N2CCC[C@@H]2C(=O)O[C@H](C(C)C)[C@H](C)/C=C/C(=O)NC\\C=C\\1 [SA0110279]", "MEASURED ATTRIBUTE": "MIC", "RECORDED RESULT": "> 64 µg/mL"}

Kindly review the next compound as well.
Input CC1=C\[C@@H](O)CC(=O)Cc2nc(co2)C(=O)N2CCC[C@@H]2C(=O)O[C@H]([C@H](C)COC(=O)Nc2ccc(C)cc2)[C@H](C)/C=C/C(=O)NC\C=C\1 [SA0110184] . Output MIC: > 64 µg/mL

====

# Tested on: S. aureus
# PROTOCOL TEXT: MIC, Gram-positive bacteria: S. aureus (strains not named)
# Type: cell-based
# TEST SETTINGS: Staphylococcus aureus, second unnamed S. aureus column (c6), read-out: Minimal Inhibitory Concentration (MIC) S. aureus
MEASURED ATTRIBUTE: MIC

{"CHEMICAL STRING": "CC1=C\\[C@@H](O)CC(=O)Cc2nc(co2)C(=O)N2CCC[C@@H]2C(=O)O[C@H]([C@@H](C)COC(=O)Nc2ccc(OC(F)(F)F)cc2)[C@H](C)/C=C/C(=O)NC\\C=C\\1", "MIC": "> 64 µg/mL"}
{"CHEMICAL STRING": "CC1=C\\[C@@H](O)CC(=O)Cc2nc(co2)C(=O)N2CCC[C@@H]2C(=O)O[C@H]([C@@H](C)COC(=O)Nc2ccc(C(F)(F)F)cc2)[C@H](C)/C=C/C(=O)NC\\C=C\\1", "MIC": "> 64 µg/mL"}

Now turn to the next compound.
Form: item CC1=C\[C@@H](O)CC(=O)Cc2nc(co2)C(=O)N2CCC[C@@H]2C(=O)O[C@H]([C@H](C)COC(=O)Nc2coc(C)n2)[C@H](C)/C=C/C(=O)NC\C=C\1 ; test system S. aureus; MIC: > 64 µg/mL

====

# Tested on: S. aureus
# PROTOCOL TEXT: MIC, Gram-positive bacteria: S. aureus (strains not named)
# Format: cell-based
# TEST SETTINGS: Staphylococcus aureus, third unnamed S. aureus column (c7), read-out: Minimal Inhibitory Concentration (MIC) S. aureus
MEASURED ATTRIBUTE: MIC

Below are worked cases with known answers.
{"MOLECULE": "CC1=C\\[C@@H](O)CC(=O)Cc2nc(co2)C(=O)N2CCC[C@@H]2C(=O)O[C@H]([C@H](C)COC(=O)Nc2ccn(C)n2)[C@H](C)/C=C/C(=O)NC\\C=C\\1", "MIC": "> 64 µg/mL"}
{"MOLECULE": "CC1=C\\[C@@H](O)CC(=O)Cc2nc(co2)C(=O)N2CCC[C@@H]2C(=O)O[C@H]([C@H](C)COC(=O)Nc2ccc(C)cc2)[C@H](C)/C=C/C(=O)NC\\C=C\\1", "MIC": "32 µg/mL"}
{"MOLECULE": "CC1=C\\[C@@H](O)CC(=O)Cc2nc(co2)C(=O)N2CCC[C@@H]2C(=O)O[C@H]([C@@H](C)COC(=O)Nc2ccc3ccccc3n2)[C@H](C)/C=C/C(=O)NC\\C=C\\1", "MIC": "32 µg/mL"}

Notebook: CC1=C\[C@@H](O)CC(=O)Cc2nc(co2)C(=O)N2CCC[C@@H]2C(=O)O[C@H]([C@@H](C)COC(=O)Nc2ccccc2)[C@H](C)/C=C/C(=O)NC\C=C\1 , MIC read as 64 µg/mL

# molecule COc1ccc(NC(=O)OC[C@@H](C)[C@H]2OC(=O)[C@H]3CCCN3C(=O)c3coc(n3)CC(=O)C[C@H](O)/C=C(C)/C=C/CNC(=O)/C=C/[C@H]2C)cc1 ; its MIC = 32 µg/mL

Documented MIC of CC1=C\[C@@H](O)CC(=O)Cc2nc(co2)C(=O)N2CCC[C@@H]2C(=O)O[C@H]([C@@H](C)COC(=O)Nc2csc(C)n2)[C@H](C)/C=C/C(=O)NC\C=C\1 : 64 µg/mL

# MIC (molecule: CC1=C\[C@@H](O)CC(=O)Cc2nc(co2)C(=O)N2CCC[C@@H]2C(=O)O[C@H]([C@@H](C)COC(=O)Nc2coc(C)n2)[C@H](C)/C=C/C(=O)NC\C=C\1 ) is > 64 µg/mL

Notebook: CC1=C\[C@@H](O)CC(=O)Cc2nc(co2)C(=O)N2CCC[C@@H]2C(=O)O[C@H]([C@H](C)COC(=O)Nc2cc(C)on2)[C@H](C)/C=C/C(=O)NC\C=C\1 , MIC read as > 64 µg/mL

Briefly, MIC measured for CC1=C\[C@@H](O)CC(=O)Cc2nc(co2)C(=O)N2CCC=C2C(=O)O[C@H](C(C)C)[C@H](C)/C=C/C(=O)NC\C=C\1 [virginiamycin M1, Virginiamycin M1, reference compound] : 8 µg/mL

Lab book: MIC of CC1=C\[C@@H](O)CC(=O)Cc2nc(co2)C(=O)N2CCC[C@@H]2C(=O)O[C@H]([C@@H](C)CO)[C@H](C)/C=C/C(=O)NC\C=C\1 noted as > 64 µg/mL

Short answer for CC1=C\[C@@H](O)CC(=O)Cc2nc(co2)C(=O)N2CCC[C@@H]2C(=O)O[C@H]([C@H](C)COC(=O)Nc2cnccn2)[C@H](C)/C=C/C(=O)NC\C=C\1 : MIC was > 64 µg/mL

So for CC1=C\[C@@H](O)C[C@@H](F)Cc2nc(co2)C(=O)N2CCC[C@@H]2C(=O)O[C@H](C(C)C)[C@H](C)/C=C/C(=O)NC\C=C\1 [flopristin, reference compound] , the logged MIC turned out to be 1 µg/mL

# molecule CC1=C\[C@@H](O)CC(=O)Cc2nc(co2)C(=O)N2CCC[C@@H]2C(=O)O[C@H]([C@@H](C)CN2CCN(C)CC2)[C@H](C)/C=C/C(=O)NC\C=C\1 ; its MIC = > 64 µg/mL

Lab note: CC1=C\[C@@H](O)CC(=O)Cc2nc(co2)C(=O)N[C@H](CCCCN)C(=O)O[C@H](C(C)C)[C@H](C)/C=C/C(=O)NC\C=C\1 gave MIC of > 64 µg/mL

MIC for C[C@H]1COc2c(N3CCN(C)CC3)c(F)cc3c(=O)c(C(=O)O)cn1c23 is 0.25 µg/mL

The molecule listed as CC1=C\[C@@H](O)CC(=O)Cc2nc(co2)C(=O)N2CCC[C@@H]2C(=O)O[C@H]([C@H](C)CO)[C@H](C)/C=C/C(=O)NC\C=C\1 shows MIC equal to > 64 µg/mL

Value of measured MIC for the entry CC(C)[C@H]1OC(=O)[C@H]2CCCN2C(=O)c2coc(n2)CC(=O)C[C@H](O)/C=C/C=C/CNC(=O)/C=C/[C@H]1C : > 64 µg/mL

Lookup result for CC1=C\[C@@H](O)CC(=O)Cc2nc(co2)C(=O)N[C@H](Cc2ccc(O)cc2)C(=O)O[C@H](C(C)C)[C@H](C)/C=C/C(=O)NC\C=C\1 ; measured MIC: > 64 µg/mL

====

# Test system: P. aeruginosa MDR clinical isolate
# PROTOCOL TEXT: MIC, Gram-negative bacteria: P. aeruginosa MDR clinical isolate
# Type: cell-based
# TEST SETTINGS: Pseudomonas aeruginosa, read-out: Minimal Inhibitory Concentration (MIC) P. aeruginosa MDR clinical isolate
MEASURED ATTRIBUTE: MIC

Example compounds with recorded MIC:
{"COMPOUND": "CC1=C\\[C@@H](O)CC(=O)Cc2nc(co2)C(=O)N2CCC[C@@H]2C(=O)O[C@H](C(C)C)[C@H](C)/C=C/C(=O)NC\\C=C\\1 [virginiamycin M2, Virginiamycin M2, reference compound]", "MIC": "> 64 µg/mL"}
{"COMPOUND": "CC1=C\\[C@@H](O)CC(=O)Cc2nc(co2)C(=O)N[C@H](Cc2c[nH]c3ccccc23)C(=O)O[C@H](C(C)C)[C@H](C)/C=C/C(=O)NC\\C=C\\1 [SA0202089]", "MIC": "> 64 µg/mL"}

Bench note, P. aeruginosa MDR clinical isolate: CC1=C\[C@@H](O)CC(=O)Cc2nc(co2)C(=O)N2CCC[C@@H]2C(=O)O[C@H]([C@H](C)COC(=O)Nc2ccc3ccccc3n2)[C@H](C)/C=C/C(=O)NC\C=C\1 [SA0110223] , MIC reads > 64 µg/mL
